molecular target: human CD33 F44V (human, UniProt P20138 18-364); test: flow cytometry, mutant on cells, IgG
Sequence (P20138 18-364 F44V limits assumed): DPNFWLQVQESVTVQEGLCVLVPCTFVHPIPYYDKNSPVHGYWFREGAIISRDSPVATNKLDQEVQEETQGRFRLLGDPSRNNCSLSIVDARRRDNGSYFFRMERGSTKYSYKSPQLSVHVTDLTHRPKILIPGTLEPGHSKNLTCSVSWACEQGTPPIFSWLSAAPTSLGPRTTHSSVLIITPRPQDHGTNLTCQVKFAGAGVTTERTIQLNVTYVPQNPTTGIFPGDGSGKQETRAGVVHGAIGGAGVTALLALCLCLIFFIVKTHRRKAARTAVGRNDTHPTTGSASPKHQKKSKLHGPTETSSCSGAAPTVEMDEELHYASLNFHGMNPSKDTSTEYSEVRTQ
parameter: Mean % WT Binding (% WT binding)
Kindly answer with a numeric value in % WT binding, unit omitted.

>  <binder>
Refmab #2 (antibody, human IgG1, V domains shown, Tested in IgG format; human IgG1 Fc silent (PG-LALA)) VH: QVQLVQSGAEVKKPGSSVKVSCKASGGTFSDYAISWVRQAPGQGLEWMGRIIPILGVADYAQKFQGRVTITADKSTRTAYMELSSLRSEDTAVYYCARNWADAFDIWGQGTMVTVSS VL: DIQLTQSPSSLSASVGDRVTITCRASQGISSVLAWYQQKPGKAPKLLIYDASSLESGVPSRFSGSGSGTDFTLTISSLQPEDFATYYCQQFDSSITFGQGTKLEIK

>  <scale.unit>
% WT binding

>  <Mean % WT Binding>
2.3

$$$$
>  <binder>
Refmab #4 (antibody, human IgG1, V domains shown, Tested in IgG format; human IgG1 Fc silent (PG-LALA)) VH: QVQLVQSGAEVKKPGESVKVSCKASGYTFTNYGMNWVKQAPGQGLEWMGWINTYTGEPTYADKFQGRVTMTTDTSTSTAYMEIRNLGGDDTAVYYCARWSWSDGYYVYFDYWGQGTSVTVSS VL: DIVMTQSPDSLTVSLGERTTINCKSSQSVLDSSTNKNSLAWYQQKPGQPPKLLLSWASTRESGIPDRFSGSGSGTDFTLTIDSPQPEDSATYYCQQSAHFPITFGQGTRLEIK

>  <scale.unit>
% WT binding

>  <Mean % WT Binding>
96.6

$$$$
>  <binder>
Refmab #1 (antibody, human IgG1, V domains shown, Tested in IgG format; human IgG1 (Absolute Antibody hP67.6, Cat. No. Ab00283-10.0); also called hP67.6) VH: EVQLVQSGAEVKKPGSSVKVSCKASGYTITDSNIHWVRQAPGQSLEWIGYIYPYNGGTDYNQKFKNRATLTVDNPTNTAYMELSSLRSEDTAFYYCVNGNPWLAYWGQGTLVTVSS VL: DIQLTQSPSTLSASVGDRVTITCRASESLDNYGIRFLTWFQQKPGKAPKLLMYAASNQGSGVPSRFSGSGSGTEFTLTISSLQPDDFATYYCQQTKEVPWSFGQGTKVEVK

>  <scale.unit>
% WT binding

>  <Mean % WT Binding>
99.5

$$$$

Turning now to a further binder:
IN: Need Mean % WT Binding, item Refmab #3 (antibody, human IgG1, V domains shown, Tested in IgG format; human IgG1 Fc silent (PG-LALA)) VH: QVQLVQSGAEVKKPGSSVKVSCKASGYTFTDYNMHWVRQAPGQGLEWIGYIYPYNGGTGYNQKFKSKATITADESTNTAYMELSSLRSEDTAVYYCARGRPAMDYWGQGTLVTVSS VL: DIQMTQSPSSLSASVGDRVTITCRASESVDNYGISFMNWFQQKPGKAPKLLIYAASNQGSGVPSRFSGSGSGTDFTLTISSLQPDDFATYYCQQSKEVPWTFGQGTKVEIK
OUT: 101
